Origin of the recorded values: ChEMBL document CHEMBL3621191

Test system: Human immunodeficiency virus 1
Assay: Antiviral activity against HIV1 3B expressing reverse transcriptase K103N + Y181C mutant infected in human MT4 cells assessed as reduction in virus-induced cytopathogenicity incubated for 4 days by MTT method
Assay type: functional, organism-based
Details: Human immunodeficiency virus 1, 3B, MT4, 96 h
Reported Property: EC50

Example cases with answers are listed next.
Challenge: Endpoint output: EC50 of `Cc1cccc(NC(=O)CS(=O)(=O)c2nccc(Oc3c(C)cc(C#N)cc3C)n2)c1` . Value?
Response given: > 25.7 µM

Challenge: Also need `Cc1ccnc2c1NC(=O)c1cccnc1N2C1CC1` , thanks.
Response given: ≥ 7.58 µM

Challenge: Please answer likewise for `Cc1cc(C#N)cc(C)c1Oc1ccnc(S(=O)(=O)CC(=O)Nc2ccc(Cl)cc2Cl)n1`
Response given: > 10.4 µM

Challenge: How about `Cc1ccc(NC(=O)CS(=O)(=O)c2nccc(Oc3c(C)cc(C#N)cc3C)n2)cc1C` ?
Response given: > 13.9 µM

New cases:
Challenge: What value of EC50 has been recorded for this entry: `COc1ccc(NC(=O)CS(=O)(=O)c2nccc(Oc3c(C)cc(C#N)cc3C)n2)cc1`
Response given: > 5.11 µM
